# assay.system: SALL4 ZFC4 G921D (HT-SELEX) (Mus musculus, UniProt Q8BX22 870-940, G921D)
# Sequence: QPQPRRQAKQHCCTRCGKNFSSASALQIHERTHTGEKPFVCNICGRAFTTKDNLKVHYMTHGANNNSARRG
# protocol: HT-SELEX; high values mean tight binding
# test.conditions: protein: recombinant; vector His6-GST; dsDNA, one strand shown
experimental.readout: binding signal (fold-change vs cycle 0)
Kindly answer with a numeric value in fold-change vs cycle 0, unit omitted.

Recorded binding signal (sequence `CCGTAC` ): 0.544

So, `CATAGG` ? Its binding signal was 0.978

For `GCAAAA` the sequence record lists binding signal as 0.873

Reported binding signal ( `CTCAGA` ) = 0.948

Measured binding signal, `AGAAGA` : 1.47

Form: sequence = `CATAGC` ; binding signal = 0.844

binding signal in this record for `AACACA` : 1.27

Entry `GCGCAC` ; binding signal = 0.167

binding signal measured on `GACATA` = 1.25

For record `GACGTA` the listed binding signal is 0.823

Record `AACCGC` , field binding signal: 0.396

Lookup result for `TACTCA` ; measured binding signal: 1.42

Per the record, `TAAGCA` has binding signal of 1.26

binding signal reading for `CGCAAA` : 0.498

Summary for this sequence, `ACGCTA` : binding signal is 0.754

binding signal recorded for this sequence, `AAAGGA` , is 1.44

The measured binding signal associated with `CATCAA` reads 1.32

Sure, the documented binding signal for `GATCGC` is 0.461

Memo: `AGTTGG` , reported binding signal: 0.883

Lookup result for `TAAATA` ; measured binding signal: 2.11

Reported binding signal for `AGCTCG` was 0.487

// `TCAAGA` : binding signal value = 1.4

Entry `ACGCGC` , binding signal reported as 0.159

###

# assay.system: SALL4 ZFC4 WT (HT-SELEX) (Mus musculus, UniProt Q8BX22 870-940)
# Sequence: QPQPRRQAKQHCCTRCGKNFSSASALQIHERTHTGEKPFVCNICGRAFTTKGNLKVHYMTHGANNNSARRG
# protocol: HT-SELEX; high values mean tight binding
# test.conditions: protein: recombinant; vector His6-GST; dsDNA, one strand shown
Record form. Attribute: binding signal. Fill in for each entry.
Hi! Could you send only the number? It should be in fold-change vs cycle 0, unit omitted.

SALL4 ZFC4 WT (HT-SELEX) (Mus musculus, UniProt Q8BX22 870-940) data for `ATACGC` ; its binding signal: 0.486

Entry `AGCGAA` , SALL4 ZFC4 WT (HT-SELEX) (Mus musculus, UniProt Q8BX22 870-940) data, binding signal value: 0.492

Field binding signal (SALL4 ZFC4 WT (HT-SELEX) (Mus musculus, UniProt Q8BX22 870-940)), entry `AATTTC` : 2.1

Value sought: binding signal, system SALL4 ZFC4 WT (HT-SELEX) (Mus musculus, UniProt Q8BX22 870-940), item `AATTGA` . Result: 1.92

// binding signal (SALL4 ZFC4 WT (HT-SELEX) (Mus musculus, UniProt Q8BX22 870-940)) for `CCATAG` = 0.841

Measured binding signal for this entry `TCTTAA` on SALL4 ZFC4 WT (HT-SELEX) (Mus musculus, UniProt Q8BX22 870-940): 2.07

Fill in: SALL4 ZFC4 WT (HT-SELEX) (Mus musculus, UniProt Q8BX22 870-940) binding signal for `ATCGAT` = 1.23

Item `AGGTTA` ; assay system SALL4 ZFC4 WT (HT-SELEX) (Mus musculus, UniProt Q8BX22 870-940); binding signal reported as 1.49

Kindly note: SALL4 ZFC4 WT (HT-SELEX) (Mus musculus, UniProt Q8BX22 870-940), `ATTGCA` , binding signal value reported: 1.16

Let me check: `TAAATA` , system SALL4 ZFC4 WT (HT-SELEX) (Mus musculus, UniProt Q8BX22 870-940), measured binding signal is 3.77

Summary line: `AGAAGG` , SALL4 ZFC4 WT (HT-SELEX) (Mus musculus, UniProt Q8BX22 870-940), reported binding signal = 0.864

binding signal value, target or system SALL4 ZFC4 WT (HT-SELEX) (Mus musculus, UniProt Q8BX22 870-940), for `ACTTGA` : 1.33

Value sought: binding signal, system SALL4 ZFC4 WT (HT-SELEX) (Mus musculus, UniProt Q8BX22 870-940), item `TCTGCA` . Result: 0.609

Item `AAATTG` was tested on SALL4 ZFC4 WT (HT-SELEX) (Mus musculus, UniProt Q8BX22 870-940); the reported binding signal is 1.6

binding signal on SALL4 ZFC4 WT (HT-SELEX) (Mus musculus, UniProt Q8BX22 870-940) for `ACCTCA` is 0.854

Entry `GCAAGA` , tested on SALL4 ZFC4 WT (HT-SELEX) (Mus musculus, UniProt Q8BX22 870-940), has a reported binding signal of 0.671

Param item: `ACGAGT` ; param system: SALL4 ZFC4 WT (HT-SELEX) (Mus musculus, UniProt Q8BX22 870-940); output binding signal: 0.767

Assay SALL4 ZFC4 WT (HT-SELEX) (Mus musculus, UniProt Q8BX22 870-940), sample `ATCCTC` , binding signal read: 0.944

Kindly note: SALL4 ZFC4 WT (HT-SELEX) (Mus musculus, UniProt Q8BX22 870-940), `ACTCTG` , binding signal value reported: 0.817

SALL4 ZFC4 WT (HT-SELEX) (Mus musculus, UniProt Q8BX22 870-940) assay, sequence `AAGCAA` , recorded binding signal = 1.18

Record `CGTAGA` has SALL4 ZFC4 WT (HT-SELEX) (Mus musculus, UniProt Q8BX22 870-940) binding signal equal to 0.623

Here `GAACAA` was tested on SALL4 ZFC4 WT (HT-SELEX) (Mus musculus, UniProt Q8BX22 870-940), and its binding signal came to 1.17

Entry `GGAACA` ; assay system SALL4 ZFC4 WT (HT-SELEX) (Mus musculus, UniProt Q8BX22 870-940); binding signal recorded at 0.762

###

For each record, write down the corresponding binding signal.
# assay.system: SALL4 ZFC4 WT (HT-SELEX) (Mus musculus, UniProt Q8BX22 870-940)
# Sequence: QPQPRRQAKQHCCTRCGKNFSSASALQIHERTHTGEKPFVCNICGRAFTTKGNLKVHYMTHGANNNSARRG
# protocol: HT-SELEX; high values mean tight binding
# test.conditions: protein: recombinant; vector His6-GST; dsDNA, one strand shown
Please respond with the number in fold-change vs cycle 0 and leave the unit unwritten.

Lookup result for `CGTTTC` ; measured binding signal: 0.628

Sure, the documented binding signal for `TCCCGA` is 0.394

Just so you know, measured binding signal for `CACACC` came out at 0.375

What the record says about `ATTGAC` : binding signal is 1.17

Lab book: binding signal of `CTATAC` noted as 1.32

Looking up `AAACTG` , I see its binding signal listed as 1.1

According to the records, this sequence `ACATGA` displays binding signal of 1.38

Quick note, binding signal for `CAGACC` landed at 0.367

Memo: `CCTACG` , reported binding signal: 0.357

Form: sequence = `TGTGAA` ; binding signal = 1.23

Looking up `ACTAGA` , I found its binding signal recorded as 1.39

Query `ATTCCG` yields binding signal of 0.646

###

# assay.system: SALL4 ZFC4 R900W (HT-SELEX) (Mus musculus, UniProt Q8BX22 870-940, R900W)
# Sequence: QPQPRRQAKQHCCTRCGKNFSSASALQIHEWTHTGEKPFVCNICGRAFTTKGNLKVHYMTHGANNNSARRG
# protocol: HT-SELEX; high values mean tight binding
# test.conditions: protein: recombinant; vector His6-GST; dsDNA, one strand shown
Answer false (0) if binding signal is under 1 fold-change vs cycle 0, and true (1) if it is 1 fold-change vs cycle 0 or more.

Query :: Is binding signal for `GAGATC` at or above 1 fold-change vs cycle 0?
Result :: false (0)

Query :: Please tell me: is the sequence `AGCAGC` at or over 1 fold-change vs cycle 0 in terms of binding signal?
Result :: false (0)

Query :: Is binding signal for `TCGAGA` at or above 1 fold-change vs cycle 0?
Result :: false (0)

Query :: Say whether `TAACTA` shows binding signal of 1 fold-change vs cycle 0 or more.
Result :: true (1)

Query :: Hello, I need to know if `ACCATA` has measured binding signal not below 1 fold-change vs cycle 0. Thanks!
Result :: true (1)

Query :: Decide: is the reported value of binding signal for `AATTGG` equal to or greater than 1 fold-change vs cycle 0?
Result :: true (1)

Query :: Reported binding signal at or above 1 fold-change vs cycle 0? `GATTCC`
Result :: false (0)

Query :: Does binding signal meet or surpass 1 fold-change vs cycle 0 for `GTGGGA` ?
Result :: false (0)

Query :: Could you tell me if the measured binding signal of `AGATCG` reaches 1 fold-change vs cycle 0 or more?
Result :: false (0)

Query :: Reported binding signal reaches at least 1 fold-change vs cycle 0 for `TAAATA` ?
Result :: true (1)

Query :: Given the entry `ATATAC` , answer whether its binding signal meets or surpasses 1 fold-change vs cycle 0.
Result :: true (1)

Query :: Does the sequence `GCGACC` have recorded binding signal that is 1 fold-change vs cycle 0 or more?
Result :: false (0)

Query :: Decide: is the reported value of binding signal for `CATGCC` equal to or greater than 1 fold-change vs cycle 0?
Result :: false (0)

Query :: Check if binding signal >= 1 fold-change vs cycle 0 (inclusive). Item: `CCACTA`
Result :: false (0)

Query :: Textbook exercise: given the entry `AACTCT` , state whether its binding signal is greater than or equal to 1 fold-change vs cycle 0.
Result :: true (1)

Query :: Hello, I need to know if `CAATTA` has measured binding signal not below 1 fold-change vs cycle 0. Thanks!
Result :: true (1)

Query :: Answer whether binding signal of `AACCGA` is greater than or equal to 1 fold-change vs cycle 0.
Result :: false (0)

Query :: Please tell me: is the sequence `CAATAA` at or over 1 fold-change vs cycle 0 in terms of binding signal?
Result :: true (1)

Query :: Please indicate if the recorded binding signal for `CTGCGA` meets or exceeds 1 fold-change vs cycle 0.
Result :: false (0)

Query :: Record `CAAGTC` ; criterion: binding signal no lower than 1 fold-change vs cycle 0. Met?
Result :: false (0)

Query :: Assess whether reported binding signal for `GGAGCC` sits at 1 fold-change vs cycle 0 or higher.
Result :: false (0)

Query :: Check this sequence for binding signal at or above 1 fold-change vs cycle 0: `TGACAA`
Result :: true (1)

Query :: Evaluate `ACCAAG` : binding signal at minimum 1 fold-change vs cycle 0?
Result :: false (0)

Query :: Would you say `ACAGGT` shows binding signal at minimum 1 fold-change vs cycle 0?
Result :: false (0)

Query :: Determine whether measured binding signal meets or exceeds 1 fold-change vs cycle 0 for `CTATCA`
Result :: true (1)

Query :: Determine whether measured binding signal meets or exceeds 1 fold-change vs cycle 0 for `GTCGGA`
Result :: false (0)

Query :: Does `ACCGAC` have a reported binding signal of at least 1 fold-change vs cycle 0?
Result :: false (0)

Query :: Is binding signal for `CAGAGG` at or above 1 fold-change vs cycle 0?
Result :: false (0)

Query :: Would you say `CCATCC` shows binding signal at minimum 1 fold-change vs cycle 0?
Result :: false (0)

Query :: // inclusive: binding signal at least 1 fold-change vs cycle 0? input: `CCGAGA`
Result :: false (0)

Query :: Evaluate `ATCCAG` : binding signal at minimum 1 fold-change vs cycle 0?
Result :: false (0)

Query :: Quick check: does `GCCTCC` have binding signal greater than or equal to 1 fold-change vs cycle 0?
Result :: false (0)

Query :: Form field: binding signal at least 1 fold-change vs cycle 0? Entry: `GGGCAC`
Result :: false (0)

Query :: Threshold query (binding signal >= 1 fold-change vs cycle 0) on `ACCATG`
Result :: false (0)

Query :: Decide: binding signal of `ATCTAG` >= 1 fold-change vs cycle 0?
Result :: true (1)

Query :: For this sequence, is measured binding signal 1 fold-change vs cycle 0 or higher? `GAGACC`
Result :: false (0)

Query :: Is it the case that `ATCGTA` has binding signal reaching or exceeding 1 fold-change vs cycle 0?
Result :: true (1)

Query :: Check this sequence for binding signal at or above 1 fold-change vs cycle 0: `AATGCA`
Result :: true (1)

Query :: API: above_or_equal(metric=binding signal, cutoff=1 fold-change vs cycle 0) for item `CCTATC`
Result :: false (0)

Query :: Confirm if binding signal reported for the sequence `AGTCAC` is 1 fold-change vs cycle 0 or above.
Result :: false (0)

Query :: Entry `CCCAGG` : is its binding signal no less than 1 fold-change vs cycle 0?
Result :: false (0)

Query :: Can `ATCCGG` be said to have binding signal at or above 1 fold-change vs cycle 0?
Result :: false (0)

Query :: Identify whether the reported binding signal of the following sequence is 1 fold-change vs cycle 0 or greater: `CCAAGA`
Result :: false (0)

Query :: Assess whether reported binding signal for `AACACC` sits at 1 fold-change vs cycle 0 or higher.
Result :: false (0)

Query :: Please tell me: is the sequence `CAGGAC` at or over 1 fold-change vs cycle 0 in terms of binding signal?
Result :: false (0)

Query :: Given `AACCGT` , state whether its binding signal is at least 1 fold-change vs cycle 0.
Result :: false (0)

Query :: Please check the record `CTCAGC` and state if its binding signal is at or above 1 fold-change vs cycle 0.
Result :: false (0)

Query :: Item `TTGAAA` with binding signal of 1 fold-change vs cycle 0 or above?
Result :: true (1)

Query :: Has `AGAACA` a recorded binding signal greater than or equal to 1 fold-change vs cycle 0?
Result :: true (1)
